meta.source: paper PMC11785708

List of zone of inhibition at 20000 µg/mL values.
# System: B. subtilis ATCC 6633
# Method: Agar well diffusion, B. subtilis
# Assay type: cell-based
# Assay Context: Bacillus subtilis, ATCC6633; 100 μl of test compound 20 mg/ml in DMF; ciprofloxacin and fluconazole 30 μg/ml; 24 h; mean ± SD; read-out: diameters of inhibition zone, B. subtilis ATCC 6633

Consider the following illustrative entries.
Smiles Structure	Assay Value
COc1ccc(C=Nn2c(CN3CCCC3)nc3ccccc3c2=O)cc1	16 mm
O=c1c2ccccc2nc(CN2CCCCC2)n1N=Cc1ccc([N+](=O)[O-])cc1	12 mm
O=c1c2ccccc2nc(CN2CCCCC2)n1N=Cc1ccccc1	17 mm

Now take the following molecule into account.
Exercise: Which zone of inhibition at 20000 µg/mL is reported for this molecule? O=c1c2ccccc2nc(CN2CCCC2)n1N=Cc1ccc([N+](=O)[O-])cc1
Key: 10 mm
